# assay.method.text: Inhibitory Activity ratio (IC50 ratio) calculated by Human recombinant aldose reductase wild type against Mutant Aldose reductase (W111A)
assay.endpoint: Ratio

| compound | assay.endpoint | result.number |
| --- | --- | --- |
| O=C(O)Cn1c(=O)n(Cc2ccc(Br)cc2F)c(=O)c2ccc(Cl)cc21 | Ratio | 786 |
| O=C(O)Cc1nn(Cc2ccc(Br)cc2F)c(=O)c2ccccc12 | Ratio | 1770 |

P. O=C1NC(=O)C2(N1)c1cc(F)ccc1-c1ccc(F)cc12
Q. O=C1CC2(C(=O)N1)C(=O)N(Cc1nc3cc(C(F)(F)F)ccc3s1)C(=O)c1ccc(F)cc12 (configuration not stated)
R. CN1C(=O)c2ccc(F)cc2C2(CC(=O)NC2=O)C1=O (configuration not stated)
S. O=C(O)CC1C(=O)N(Cc2ccc(Br)cc2F)C(=O)c2ccc(F)cc21 (configuration not stated)
// query Please list these compounds in decreasing order of Ratio. Output the labels ranked as instructed.
// result R, P, S, Q

* * *

# assay.method.text: Inhibitory Activity ratio (IC50 ratio) calculated by Human recombinant aldose reductase wild type against Mutant Aldose reductase (W111Y).
assay.endpoint: Ratio

Here is how some molecules turned out for Ratio.
| molecule | Ratio |
| --- | --- |
| O=C1CC2(C(=O)N1)C(=O)N(Cc1nc3cc(C(F)(F)F)ccc3s1)C(=O)c1ccc(F)cc12 (configuration not stated) | 2 |
| O=C(O)Cc1nn(Cc2ccc(Br)cc2F)c(=O)c2ccccc12 | 58 |
| O=C(O)CC1C(=O)N(Cc2ccc(Br)cc2F)C(=O)c2ccc(F)cc21 (configuration not stated) | 193 |
| O=C(O)Cn1c(=O)n(Cc2ccc(Br)cc2F)c(=O)c2ccc(Cl)cc21 | 12 |
| O=C1NC(=O)C2(N1)c1cc(F)ccc1-c1ccc(F)cc12 | 1960 |

I. CN1C(=O)c2ccc(Cl)cc2C2(CC(=O)NC2=O)C1=O (configuration not stated)
II. CN1C(=O)c2ccc(F)cc2C2(CC(=O)NC2=O)C1=O (configuration not stated)
// query Task for the reader: decide whether I or II has the larger Ratio. Select an item and report its label.
// result II

* * *

# assay.method.text: Inhibitory Activity ratio (IC50 ratio) calculated by Human recombinant aldose reductase wild type against Mutant Aldose reductase (W20A).
assay.endpoint: Ratio

Here is how some compounds turned out for Ratio.
| compound | Ratio |
| --- | --- |
| O=C1NC(=O)C2(N1)c1cc(F)ccc1-c1ccc(F)cc12 | 9140 |
| O=C1CC2(C(=O)N1)C(=O)N(Cc1nc3cc(C(F)(F)F)ccc3s1)C(=O)c1ccc(F)cc12 (configuration not stated) | 1 |
| O=C(O)Cn1c(=O)n(Cc2ccc(Br)cc2F)c(=O)c2ccc(Cl)cc21 | 448 |
| O=C(O)Cc1nn(Cc2ccc(Br)cc2F)c(=O)c2ccccc12 | 1770 |

a. CN1C(=O)c2ccc(Cl)cc2C2(CC(=O)NC2=O)C1=O (configuration not stated)
b. O=C(O)CC1C(=O)N(Cc2ccc(Br)cc2F)C(=O)c2ccc(F)cc21 (configuration not stated)
c. CN1C(=O)c2ccc(F)cc2C2(CC(=O)NC2=O)C1=O (configuration not stated)
// query Please list these compounds in decreasing order of Ratio. Output the labels ranked as instructed.
// result c, a, b
(c: 1670, a: 1070, b: 311)
